This collection of values is drawn from patent US20250304677A1.

target: T1, mouse folate receptor alpha (mFRα), recombinant protein (mouse, UniProt P35846 25-232); test: BLI, purified VHH
T1 construct: Bought recombinant proteins (e.g. biotinylated, Acro Biosystems FO1-M82E9); also called mFOLR1; Ms FOLR1
T1 sequence (P35846 25-232 limits assumed): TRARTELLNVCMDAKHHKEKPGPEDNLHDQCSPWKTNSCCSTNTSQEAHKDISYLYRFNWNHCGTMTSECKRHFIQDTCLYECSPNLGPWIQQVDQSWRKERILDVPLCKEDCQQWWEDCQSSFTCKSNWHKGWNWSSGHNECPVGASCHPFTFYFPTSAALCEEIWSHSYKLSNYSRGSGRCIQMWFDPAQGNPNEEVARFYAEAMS
Friendly reminder: koff below 0.0001 s⁻¹ is Satisfied, at or above is Not satisfied.

Prompt: For P01500058: P01500001(G26E, G28P)-FLAG3-HIS6 (VHH, also called P0150058) VHH: EVQLVESGGGLVQPGGSLRLSCAASESPFSGMIMGWYRQAPGKQRELVATVTSHGTTNYADSVKGRFTISRDNAKNTVYLQMNSLRPEDTAVYYCNAHFPGIYWGKGTLVTVSS , is the recorded koff below the cut-off of 0.0001 s⁻¹?
Completion: Not satisfied

Prompt: For P01500041: P01500001(D72P, N73G)-FLAG3-HIS6 (VHH, also called P0150041) VHH: EVQLVESGGGLVQPGGSLRLSCAASGSGFSGMIMGWYRQAPGKQRELVATVTSHGTTNYADSVKGRFTISRPGAKNTVYLQMNSLRPEDTAVYYCNAHFPGIYWGKGTLVTVSS , is the recorded koff below the cut-off of 0.0001 s⁻¹?
Completion: Not satisfied

Prompt: For P01500048: P01500001(S30I, D72P)-FLAG3-HIS6 (VHH, also called P0150048) VHH: EVQLVESGGGLVQPGGSLRLSCAASGSGFIGMIMGWYRQAPGKQRELVATVTSHGTTNYADSVKGRFTISRPNAKNTVYLQMNSLRPEDTAVYYCNAHFPGIYWGKGTLVTVSS , is the recorded koff below the cut-off of 0.0001 s⁻¹?
Completion: Not satisfied

Prompt: For P01500052: P01500001(V51R, D72E)-FLAG3-HIS6 (VHH, also called P0150052) VHH: EVQLVESGGGLVQPGGSLRLSCAASGSGFSGMIMGWYRQAPGKQRELVATRTSHGTTNYADSVKGRFTISRENAKNTVYLQMNSLRPEDTAVYYCNAHFPGIYWGKGTLVTVSS , is the recorded koff below the cut-off of 0.0001 s⁻¹?
Completion: Not satisfied

Prompt: For P01500056: P01500001(I33L, D72P, N73G)-FLAG3-HIS6 (VHH, also called P0150056) VHH: EVQLVESGGGLVQPGGSLRLSCAASGSGFSGMLMGWYRQAPGKQRELVATVTSHGTTNYADSVKGRFTISRPGAKNTVYLQMNSLRPEDTAVYYCNAHFPGIYWGKGTLVTVSS , is the recorded koff below the cut-off of 0.0001 s⁻¹?
Completion: Satisfied

Prompt: For P01500045: P01500001(G26E, I33L)-FLAG3-HIS6 (VHH, also called P0150045) VHH: EVQLVESGGGLVQPGGSLRLSCAASESGFSGMLMGWYRQAPGKQRELVATVTSHGTTNYADSVKGRFTISRDNAKNTVYLQMNSLRPEDTAVYYCNAHFPGIYWGKGTLVTVSS , is the recorded koff below the cut-off of 0.0001 s⁻¹?
Completion: Not satisfied

Prompt: For P01500055: P01500001(V51R, D72E, N73G)-FLAG3-HIS6 (VHH, also called P0150055) VHH: EVQLVESGGGLVQPGGSLRLSCAASGSGFSGMIMGWYRQAPGKQRELVATRTSHGTTNYADSVKGRFTISREGAKNTVYLQMNSLRPEDTAVYYCNAHFPGIYWGKGTLVTVSS , is the recorded koff below the cut-off of 0.0001 s⁻¹?
Completion: Satisfied

Prompt: For P01500043: P01500001(G28T, I33L, D72E)-FLAG3-HIS6 (VHH, also called P0150043) VHH: EVQLVESGGGLVQPGGSLRLSCAASGSTFSGMLMGWYRQAPGKQRELVATVTSHGTTNYADSVKGRFTISRENAKNTVYLQMNSLRPEDTAVYYCNAHFPGIYWGKGTLVTVSS , is the recorded koff below the cut-off of 0.0001 s⁻¹?
Completion: Not satisfied

Prompt: For P01500049: P01500001(G26E)-FLAG3-HIS6 (VHH, also called P0150049) VHH: EVQLVESGGGLVQPGGSLRLSCAASESGFSGMIMGWYRQAPGKQRELVATVTSHGTTNYADSVKGRFTISRDNAKNTVYLQMNSLRPEDTAVYYCNAHFPGIYWGKGTLVTVSS , is the recorded koff below the cut-off of 0.0001 s⁻¹?
Completion: Not satisfied

Prompt: For P01500051: P01500001(D72E, N73G)-FLAG3-HIS6 (VHH, also called P0150051) VHH: EVQLVESGGGLVQPGGSLRLSCAASGSGFSGMIMGWYRQAPGKQRELVATVTSHGTTNYADSVKGRFTISREGAKNTVYLQMNSLRPEDTAVYYCNAHFPGIYWGKGTLVTVSS , is the recorded koff below the cut-off of 0.0001 s⁻¹?
Completion: Satisfied

Prompt: For P01500057: P01500001(G26E, G28P, D72E, N73G)-FLAG3-HIS6 (VHH, also called P0150057) VHH: EVQLVESGGGLVQPGGSLRLSCAASESPFSGMIMGWYRQAPGKQRELVATVTSHGTTNYADSVKGRFTISREGAKNTVYLQMNSLRPEDTAVYYCNAHFPGIYWGKGTLVTVSS , is the recorded koff below the cut-off of 0.0001 s⁻¹?
Completion: Satisfied

Prompt: For P01500053: P01500001(S30I, I33L, N73P)-FLAG3-HIS6 (VHH, also called P0150053) VHH: EVQLVESGGGLVQPGGSLRLSCAASGSGFIGMLMGWYRQAPGKQRELVATVTSHGTTNYADSVKGRFTISRDPAKNTVYLQMNSLRPEDTAVYYCNAHFPGIYWGKGTLVTVSS , is the recorded koff below the cut-off of 0.0001 s⁻¹?
Completion: Not satisfied

Prompt: For P01500008: 2MFR67(Q1E, Q5V, Q108L)-FLAG3-HIS6 (VHH, Entry includes the tags; also called 2MFR67-Flag3-His6) VHH: EVQLVESGGGLVQAGGSLRLSCAASGSGFSGMIMGWYRQAPGKQRELVATVTSHGTTNYADSVKGRFTISREDSKNTVLLQMNSLKPEDTAVYYCNAHFPGIYWGKGTLVTVSS , is the recorded koff below the cut-off of 0.0001 s⁻¹?
Completion: Not satisfied

Prompt: For P01500054: P01500001(I33L, N73P)-FLAG3-HIS6 (VHH, also called P0150054) VHH: EVQLVESGGGLVQPGGSLRLSCAASGSGFSGMLMGWYRQAPGKQRELVATVTSHGTTNYADSVKGRFTISRDPAKNTVYLQMNSLRPEDTAVYYCNAHFPGIYWGKGTLVTVSS , is the recorded koff below the cut-off of 0.0001 s⁻¹?
Completion: Not satisfied

Prompt: For P01500050: P01500001(G28T, D72P)-FLAG3-HIS6 (VHH, also called P0150050) VHH: EVQLVESGGGLVQPGGSLRLSCAASGSTFSGMIMGWYRQAPGKQRELVATVTSHGTTNYADSVKGRFTISRPNAKNTVYLQMNSLRPEDTAVYYCNAHFPGIYWGKGTLVTVSS , is the recorded koff below the cut-off of 0.0001 s⁻¹?
Completion: Not satisfied

Prompt: For P01500046: P01500001(N73P)-FLAG3-HIS6 (VHH, also called P0150046) VHH: EVQLVESGGGLVQPGGSLRLSCAASGSGFSGMIMGWYRQAPGKQRELVATVTSHGTTNYADSVKGRFTISRDPAKNTVYLQMNSLRPEDTAVYYCNAHFPGIYWGKGTLVTVSS , is the recorded koff below the cut-off of 0.0001 s⁻¹?
Completion: Not satisfied
